I'd be grateful if you could share measured HSA for these entries.
- target or system: human serum albumin (human) (UniProt P02768)
- Sequence (P02768 25-609 limits assumed): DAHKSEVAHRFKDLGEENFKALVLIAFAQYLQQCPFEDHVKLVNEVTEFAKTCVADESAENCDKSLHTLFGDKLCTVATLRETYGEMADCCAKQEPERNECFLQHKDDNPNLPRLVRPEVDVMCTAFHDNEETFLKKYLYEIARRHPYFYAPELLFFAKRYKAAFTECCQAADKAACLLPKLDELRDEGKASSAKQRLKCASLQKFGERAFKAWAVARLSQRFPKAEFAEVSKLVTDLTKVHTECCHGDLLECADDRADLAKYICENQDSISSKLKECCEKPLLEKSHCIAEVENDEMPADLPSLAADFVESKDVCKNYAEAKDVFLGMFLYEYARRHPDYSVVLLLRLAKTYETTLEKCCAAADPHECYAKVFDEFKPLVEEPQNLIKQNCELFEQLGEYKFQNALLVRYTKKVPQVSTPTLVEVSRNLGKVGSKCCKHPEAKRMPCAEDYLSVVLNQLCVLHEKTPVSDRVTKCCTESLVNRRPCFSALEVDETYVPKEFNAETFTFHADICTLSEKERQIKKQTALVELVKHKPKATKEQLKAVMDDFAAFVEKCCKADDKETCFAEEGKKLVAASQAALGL
- assay info: screening ELISA
Just the number.

What HSA value was documented for this binder, SEQ ID NO 178 (designed binder) MLPAPKNLVVSRVTEDSARLSWTAPDAAFDSFDIAYAEPIPRGEAIVLTVPGSERSYDLTGLKPGTEYSVLIHGVKGGRRSVPLSAIFTT ? 2250

I have this binder here, SEQ ID NO 237 (designed binder) MLPAPKNLVVSRVTEDSARLSWTAPDAAFDSFTILYGEMGTTGEAIVLTVPGSERSYDLTGLKPGTEYDVFIEGVKGGELSWPLSAIFTT , and I need its recorded HSA. 1850

Report HSA for SEQ ID NO 141 (designed binder) MLPAPKNLVVSRVTEDSARLSWTAPDAAFDSFVIEYFEQFNLGEAIVLTVPGSERSYDLTGLKPGTEYLVGIYGVKGGWLSHPLSAIFTT please. 3150

Given the entry SEQ ID NO 306 (designed binder) MLPAPKNLVVSRVTEDSARLSWTAPDAAFDSFYIEYFETQGYGEAIVLTVPGSERSYDLTGLKPGTEYYVAIYGVKGGYLSRPLSAIFTT , report its measured HSA. 2250
